Data provenance: ChEMBL document CHEMBL3507680

Below, each entry is listed alongside its reported cytotoxicity at 70.5 h.
test: Human HepG2 cell viability assay in 384 well format; assay type: toxicity, cell-based; parameters: dose 125 nL, time 70.5 hour; concentration not given beside the values; settings: HepG2 cells, read-out: Inhibition
Give the value in % but do not write % after it.

Some compounds with known cytotoxicity at 70.5 h results, for comparison:
* CC(=O)NC1CCN(C(=O)Nc2ccc(SC(F)F)cc2)CC1 | -4.73
* Cc1ccc(S(=O)(=O)CCC(=O)NCc2nnc3n2CCC3)cc1 | -3.09
* CS(=O)(=O)NCC1CCCN(c2ccc(C#N)cn2)C1 (configuration not stated) | -8.07
* Cc1cccc(C)c1OCCC(=O)N1CCC(c2nncn2C)CC1 | -21.4
* COCC(=O)Nc1cc(S(=O)(=O)C(F)(F)F)ccc1OC | 2.14

What measured cytotoxicity at 70.5 h goes with "Cc1cc(C(=O)N2CCCN(Cc3cnn(C)c3)CC2)no1" ? -3.47

What measured cytotoxicity at 70.5 h goes with "COc1ccccc1C(=O)N1CCN(CCc2scnc2C)CC1" ? -7.23

What measured cytotoxicity at 70.5 h goes with "Cc1cc(CN2CCN(C(=O)c3sccc3C3CC3)CC2)on1" ? -13.6

What measured cytotoxicity at 70.5 h goes with CC(=O)NCCCSC1CCCN(c2ccccc2F)C1=O (configuration not stated) ? -6.35

What measured cytotoxicity at 70.5 h goes with "CN(Cc1ncnn1C)C(=O)Nc1ccc(OC(F)F)cc1" ? -8.26

What measured cytotoxicity at 70.5 h goes with "O=C1CC[C@H]2[C@H](CCN2C(=O)C2CCOCC2)N1Cc1ccncc1" ? -15.6

What measured cytotoxicity at 70.5 h goes with "Cn1cc(Cl)cc1C(=O)N1CCN(Cc2ccsc2)CC1" ? 0.559

====

experiment: Human HepG2 cell viability assay in 384 well format; format: toxicity, cell-based; parameters: dose 125 nL, time 70.5 hour; concentration not given beside the values; conditions: HepG2 cells, read-out: Inhibition
Note to self: use True only for cytotoxicity at 70.5 h readings below -10%; a reading exactly at -10% still gets False.

Study these solved cases before continuing.
* Cc1nc(C)n(C2CCCN(C(=O)c3ccc(F)cc3F)C2)n1 (stereo unspecified) | False
* CN(C(=O)Cn1nc(-c2ccccc2F)ccc1=O)C1CCS(=O)(=O)C1 (stereo unspecified) | True
* CCc1nc(CN2CCCC(NCc3cnn(C(C)(C)C)c3)C2)no1 (stereo unspecified) | True
* Cc1cccc(CN2CCC3(CC2)CC(Oc2cccnc2)C3)n1 | False
* c1ccn(Cc2nnc3n2CCCN(Cc2ccoc2)C3)c1 | False

# input for lookup
Item "CCc1ocnc1C(=O)N1CCN(c2nncc3ccccc23)CC1" : cytotoxicity at 70.5 h beneath -10%, strictly? True

====

experiment: Human HepG2 cell viability assay in 384 well format; assay type: toxicity, cell-based; design: dose 125 nL, time 70.5 hour; concentration not given beside the values; settings: HepG2 cells, read-out: Inhibition
quantity: cytotoxicity at 70.5 h
Please don't drop the unit; write it after the number.

• CCN(CC)c1ccc(C2C3=C(COC3=O)Nc3[nH]nc(C)c32)cc1 (stereo not drawn) = -4.13%

What measured cytotoxicity at 70.5 h goes with "N#CCCn1cnc2c(Br)cc(Br)cc2c1=O" ? -3.9%

What measured cytotoxicity at 70.5 h goes with COCc1nc(CN2CCC3(CCCO3)CCC2=O)no1 (stereo not drawn) ? -7.37%

What measured cytotoxicity at 70.5 h goes with "COCCS(=O)(=O)N(Cc1cscn1)c1ccccc1" ? -5.03%

What measured cytotoxicity at 70.5 h goes with NCCCC(=O)NCC1(O)CCCN(c2ccnc3cccnc23)C1 (stereo not drawn) ? -4.51%

What measured cytotoxicity at 70.5 h goes with Cc1cncc(C2CCCN(Cc3cccn3C)C2)n1 (stereo not drawn) ? 0.452%

What measured cytotoxicity at 70.5 h goes with "Cc1nc(-c2ccncc2)nc(N(C)CCc2ccncc2)c1C" ? 4.43%

What measured cytotoxicity at 70.5 h goes with "O=C(O)CNc1cc(-c2nccnc2N2CCCC2)c2cc[nH]c2n1" ? 0.303%

What measured cytotoxicity at 70.5 h goes with "CN(C)C(C)(C)CNCc1c[nH]nc1-c1cc2ccccc2o1" ? 10%

====

test: Human HepG2 cell viability assay in 384 well format; format: toxicity, cell-based; set-up: dose 125 nL, time 70.5 hour; concentration not given beside the values; settings: HepG2 cells, read-out: Inhibition
quantity: cytotoxicity at 70.5 h (%)
Give the value in % but do not write % after it.

Some compounds with known cytotoxicity at 70.5 h results, for comparison:
- CCN(C)C[C@@H]1CN(S(=O)(=O)c2ccc(OC)cc2)C[C@@H]1CO: 10.4
- Cc1ccc(NC2CCN(C(=O)CCc3ccsc3)CC2)nn1: -7.65
- CCN1CC(C(=O)N2CC(Oc3ccccc3F)C2)CC1=O (configuration not stated): -1.35
- COCC(=O)N1CCC2(CCCN(Cc3cnn(C)c3)C2)C1 (configuration not stated): -3.28
- OC1(c2cn(C3CCN(C4CCSC4)CC3)nn2)CCCC1 (configuration not stated): -4.72
- CC(=O)NCC[C@H]1CC(C)(C)Oc2ccccc21: -4.17

What measured cytotoxicity at 70.5 h goes with "Cc1cnc(N2CC[C@H]3[C@@H]2CCC(=O)N3c2cccnc2)nc1" ? -2.59

What measured cytotoxicity at 70.5 h goes with "O=C(O)c1cnc(N2CCC(O)CC2)nc1COc1cccc(F)c1" ? -12.9

What measured cytotoxicity at 70.5 h goes with Cn1cc(C(C)(O)CNc2ccccn2)cn1 (configuration not stated) ? 2.38

What measured cytotoxicity at 70.5 h goes with "CC(C)Cc1noc(CN2CCN(CCO)CC2)n1" ? -4.77

What measured cytotoxicity at 70.5 h goes with COc1cc2c(cc1CNCc1cccnc1-n1cccn1)OC(C)C2 (configuration not stated) ? 16.8

What measured cytotoxicity at 70.5 h goes with CNS(=O)(=O)c1ccc(C(=O)N2CCCC(n3cccn3)C2)cc1 (configuration not stated) ? -8.29

====

assay: Human HepG2 cell viability assay in 384 well format; type: toxicity, cell-based; set-up: dose 125 nL, time 70.5 hour; concentration not given beside the values; details: HepG2 cells, read-out: Inhibition
Below, each entry is listed alongside its reported cytotoxicity at 70.5 h.
Give the value in % but do not write % after it.

• Cc1ccsc1CN(CCN(C)C)C(=O)c1ccccc1C#N = -0.2
• COC(=O)c1cccn1C1CCN(CCN2C(=O)CCC2=O)CC1 = -5.66
• CC(CS(C)(=O)=O)NCc1cc(Cl)ccc1F (centres undefined) = 19.9
• O=C1CCCN1CCC1CCN(C2CCC3(CCNCC3)CC2)CC1 = -6.34
• COc1cc(CNC(C)Cn2cccn2)cc2c1OCCO2 (centres undefined) = -4.44

What measured cytotoxicity at 70.5 h goes with "O=C1CCCN1Cc1ncn2c1CN(C(=O)N1CCCC1)CCC2" ? 0.134

What measured cytotoxicity at 70.5 h goes with "CCc1noc(CN2CCN(C(=O)c3ccccn3)CC2)n1" ? -7.01

What measured cytotoxicity at 70.5 h goes with COC(=O)c1ccc(C2SCC(=O)Nc3ccsc32)cc1 (centres undefined) ? -8.05

What measured cytotoxicity at 70.5 h goes with CC(NC(=O)NCCCN(C)S(C)(=O)=O)c1ccncc1 (centres undefined) ? -3.33

What measured cytotoxicity at 70.5 h goes with CSCc1nc(CNC(=O)C2CCCN(C(=O)N(C)C)C2)cs1 (centres undefined) ? -7.03

What measured cytotoxicity at 70.5 h goes with "Fc1ccccc1Cc1noc(CN2CC[C@@H]3CCCC[C@H]3C2)n1" ? -4.61

What measured cytotoxicity at 70.5 h goes with "Cc1cc(CN2C[C@@H]3COC[C@]3(CNC(=O)N3CCCC3)C2)no1" ? 0.0997

What measured cytotoxicity at 70.5 h goes with "CC(C)CCNc1nc(C(=O)NC2CC2)cs1" ? 6.98

What measured cytotoxicity at 70.5 h goes with "CC(=O)Nc1ccc(C(=O)Nc2cnc3n2CCCC3)c(C)c1" ? -1.77

What measured cytotoxicity at 70.5 h goes with "O=C1CO[C@H]2CN(Cc3cccc(F)c3F)C[C@@H]2N1C1CCOCC1" ? 41.9

What measured cytotoxicity at 70.5 h goes with "Cc1cc(NCc2ccccc2)nc2[nH]nc(N)c12" ? -12.7

What measured cytotoxicity at 70.5 h goes with Cc1nnc(CN(C)CC(=O)N2CCCC(C(F)(F)F)C2)n1C (centres undefined) ? 16.8

What measured cytotoxicity at 70.5 h goes with "Cc1cc(C)c2cc(CNCc3cccnc3)c3nn(C)c(=O)n3c2c1" ? -0.562

What measured cytotoxicity at 70.5 h goes with "Cc1cnc(CCNC(=O)C2CN(C(=O)Cc3ccc(F)cc3)C2)s1" ? 15.9

What measured cytotoxicity at 70.5 h goes with CCN(CC)Cc1ccc(C(=O)N2CCCC2Cn2cccn2)o1 (centres undefined) ? -1.33

What measured cytotoxicity at 70.5 h goes with Cc1ccc(-c2nc(CN(Cc3ccco3)C3CCS(=O)(=O)C3)cs2)o1 (centres undefined) ? 15.2

What measured cytotoxicity at 70.5 h goes with "O=C(CCOc1cccc(Cl)c1)N1CCN(c2cnccn2)CC1" ? 22

What measured cytotoxicity at 70.5 h goes with CCc1nc(C2CCCN(C(=O)c3cccnc3O)C2)no1 (centres undefined) ? -0.758

What measured cytotoxicity at 70.5 h goes with Cc1n[nH]cc1CNC(C)c1cccc(N2CCCC2=O)c1 (centres undefined) ? 14.3
